// cross-study collection: pKi for Carbonic anhydrase 1 (Homo sapiens)
pKi: −log10 of the molar value.
Please mark met if the recorded pKi is equal to or greater than 6, and not met if it falls below.

Solved cases below.
## Task Is it the case that CCCC(CCC)CN(C(=O)OC(C)(C)C)S(=O)(=O)NCCC(=O)OC has pKi reaching or exceeding 6?
## Result not met

## Task Tell me whether pKi is at least 6 here: CCOC(=O)/C(O)=C/C(=O)/C=C/c1ccc(NC(=O)c2ccc3ccccc3c2)cc1
## Result not met

## Task Is pKi at least 6? Consider C#CCOc1ccc2ccc(=S)oc2c1
## Result not met

## Task Can C[C@H](CCC(=O)NCc1ccc(S(N)(=O)=O)cc1)[C@H]1CC[C@H]2[C@@H]3CC[C@@H]4C[C@H](O)CC[C@]4(C)[C@H]3C[C@H](O)[C@]12C be said to have pKi at or above 6?
## Result not met

## Task Tell me whether pKi is at least 6 here: CCCN(CCC)S(=O)(=O)c1ccc(C(=O)NCCCN2CCOCC2)cc1
## Result not met

Further cases:
## Task Hi team, for O=C(Nc1ccc2c(c1)S(=O)(=O)NC2=O)c1cccc(Cl)c1 , is the recorded pKi at or above 6?
## Result not met

## Task Check this molecule for pKi at or above 6: CC(C(=O)NO)N(Cc1ccccc1)S(=O)(=O)C(F)(F)C(F)(F)C(F)(F)C(F)(F)F (stereo unspecified)
## Result met

## Task Identify whether the reported pKi of the following molecule is 6 or greater: Cc1cccc(C(=O)NCc2ccc(S(N)(=O)=O)cc2)c1
## Result met

###

pKi: −log10 of the molar value.
Record set: pKi | Carbonic anhydrase 1 (Homo sapiens) | literature, multiple sources.
Please note: true applies when pKi is 6 or greater, and false applies otherwise.

## Task Is it the case that CC(C)(C)OC(=O)n1c(-c2cc(=O)n(C(C)(C)C)[s+]2[O-])cc2ccccc21 (stereo unspecified) has pKi reaching or exceeding 6?
## Result false

## Task For this compound, is measured pKi 6 or higher? NS(=O)(=O)c1ccc(-c2ccc(C(O)c3ccc(C(=O)O)cc3)cc2)cc1 (stereo unspecified)
## Result true

## Task Does pKi meet or surpass 6 for NS(=O)(=O)c1ccc2c(c1)C=CS2(=O)=O ?
## Result true

## Task Threshold query (pKi >= 6) on O=c1c(Nc2ccc3c(c2)B(O)OC3)c(Nc2ccc3c(c2)B(O)OC3)c1=O
## Result false

## Task Exam item: decide whether the reported pKi for CCOC1Oc2ccccc2C(=O)/C1=C/Nc1ccc(S(=O)(=O)Nc2cc(C)on2)cc1 (stereo unspecified) is at least 6.
## Result false

Continuing:
## Task Could you please find out whether COC(=O)c1cccc(NC(=O)N/C=C/C=C/c2ccc3c(c2)OCO3)c1 has pKi that meets 6 or exceeds it?
## Result false

## Task API: above_or_equal(metric=pKi, cutoff=6) for item COc1ccc(C(=O)CSc2nc(Nc3cccc(S(N)(=O)=O)c3)cc(-c3ccccc3)n2)cc1
## Result false

## Task Quick check, pKi >= 6? O=C(O)c1cccc(CNCc2ccccc2)c1
## Result false

## Task I'd appreciate it if you could say whether CC(=O)c1c(O)c2cc([N+](=O)[O-])ccc2oc1=O has pKi at least equal to 6.
## Result false
